Tested on: HEK-293T
procedure summary: Multiplex assay against HEK293T
Assay type: toxicity, cell-based
experimental setup: human, 24 h, 1 µM, compound concentration 1 uM, replicate 2
measured quantity: Population Hoechst High Intensity Objects (%)

compound: N[C@@]1(C(=O)O)CO[C@H]2[C@H](C(=O)O)[C@H]21
output unit: %
meas value: 7
//
compound: CCCn1c(=O)c2[nH]c(C3CCCC3)nc2n(CCC)c1=O
output unit: %
meas value: 3
//
compound: O=C(NCCO)c1cccc(-c2cc(Nc3ccc(OC(F)(F)F)cc3)ncn2)c1
output unit: %
meas value: 6
//
compound: C[C@H](NC(=O)c1c(C(F)F)nn(C)c1Oc1cccc(C(F)(F)F)c1)c1ccc(C(=O)O)cc1
output unit: %
meas value: 4
//
compound: CC(=O)NCCc1c(Cc2ccccc2)[nH]c2ccccc12
output unit: %
meas value: 8
//
compound: O=C(O)Cc1ccccc1Nc1c(Cl)cccc1Cl
output unit: %
meas value: 10
//
compound: CN(C)c1ccnc2sc3c(=O)n(N4CCCCCC4)cnc3c12
output unit: %
meas value: 5
//
compound: CCCN1CCC[C@@H]2Cc3n[nH]cc3C[C@H]21.Cl [QUINPIROLE HYDROCHLORIDE]
output unit: %
meas value: 2
//
compound: C[C@H]1[C@H]2CC[C@H]3[C@@H]4CC=C5C[C@@H](N(C)C)CC[C@]5(C)[C@H]4CC[C@]23CN1C
output unit: %
meas value: 4
//
compound: Cc1nc2ccc(Oc3ccc(F)cc3)cc2c(=O)n1C[C@H]1CCCN(C(C)C)C1.Cl
output unit: %
meas value: 22
//
compound: CC(C)(C)c1ccc(S(=O)(=O)Nc2ccc(Cl)cc2C(=O)c2cc[n+]([O-])cc2)cc1
output unit: %
meas value: 5
//
compound: Cl.Clc1ccc2nsnc2c1NC1=NCCN1 [TIZANIDINE HYDROCHLORIDE]
output unit: %
meas value: 5
//
compound: O=C(NCC(=O)N1CC[C@H](N[C@H]2CC[C@@](O)(c3ccc(-c4ncccn4)cn3)CC2)C1)c1cccc(C(F)(F)F)c1
output unit: %
meas value: 5

* * *

Property: Population Healthy Nuclei (%); scope: individual compounds
Test system: HEK-293T
procedure summary: Multiplex assay against HEK293T
Assay type: toxicity, cell-based
experimental setup: human, 12 h, 1 µM, compound concentration 1 uM, replicate 2
measured quantity: Population Healthy Nuclei (%)

compound: CCNC1(C(N)=O)CCN(c2ncnc3c2nc(-c2ccccc2Cl)n3-c2ccc(Cl)cc2)CC1 [OTENABANT]
output unit: %
meas value: 76

compound: CC(=O)NCCc1c(Cc2ccccc2)[nH]c2ccccc12 [LUZINDOLE]
output unit: %
meas value: 80

compound: CN1CCN2c3ncccc3Cc3ccccc3C2C1 (stereo not given) [MIRTAZAPINE]
output unit: %
meas value: 79

compound: CCOc1c2c(c(OCC)c3ncccc13)CN(c1ccc(CS(=O)(=O)NC(=O)Cc3ccccc3OC)cc1C)C2=O
output unit: %
meas value: 82

compound: Cc1ccc(/C(=C\CN2CCCC2)c2ccccn2)cc1 [TRIPROLIDINE]
output unit: %
meas value: 84

compound: COc1ccccc1N1CCN(CCCCNC(=O)c2ccc3ccccc3c2)CC1.Cl
output unit: %
meas value: 79

compound: CC(C)(C)c1ccc(S(=O)(=O)Nc2ccc(Cl)cc2C(=O)c2cc[n+]([O-])cc2)cc1 [VERCIRNON]
output unit: %
meas value: 84

compound: N[C@@]1(C(=O)O)CO[C@H]2[C@H](C(=O)O)[C@H]21 [LY-379268]
output unit: %
meas value: 80

compound: C[C@H](NC(=O)c1c(C(F)F)nn(C)c1Oc1cccc(C(F)(F)F)c1)c1ccc(C(=O)O)cc1 [PALUPIPRANT]
output unit: %
meas value: 83

compound: Cc1ccc(C(C)(O)c2nc3ccccc3s2)c(C)c1 (stereo not given)
output unit: %
meas value: 79

compound: Cl.Clc1ccc2nsnc2c1NC1=NCCN1 [TIZANIDINE HYDROCHLORIDE]
output unit: %
meas value: 83

compound: O=C1COc2nccc(-c3ccccc3F)c2CN1Cc1cc(C(F)(F)F)cc(C(F)(F)F)c1
output unit: %
meas value: 83

compound: COc1ccc2c(c1)C(C(=O)N(Cc1ccc(N(C)C)cc1)c1ccc(C(C)C)cc1)CCC2.Cl (stereo not given)
output unit: %
meas value: 79

compound: COc1cc(C(=O)N(CCCc2ccccc2)Cc2ccc(CC(=O)O)cc2)cc(OC)c1C
output unit: %
meas value: 84

compound: N#Cc1c(N)nc(SCc2csc(-c3ccc(Cl)cc3)n2)c(C#N)c1-c1ccc(OCCO)cc1 [CAPADENOSON]
output unit: %
meas value: 80

* * *

System: U2OS
procedure summary: Multiplex assay against U2OS
Format: toxicity, cell-based
experimental setup: human, 24 h, 1 µM, compound concentration 1 uM, replicate 1
Property: Population Mitotic Cells (%); scope: individual compounds
measured quantity: Population Mitotic Cells (%)

compound: CNC[C@H](O)c1ccc(O)c(O)c1 [EPINEPHRINE]
measured quantity: Population Mitotic Cells (%)
output unit: %
meas value: 15

compound: O=C(NCCO)c1cccc(-c2cc(Nc3ccc(OC(F)(F)F)cc3)ncn2)c1
measured quantity: Population Mitotic Cells (%)
output unit: %
meas value: 29

compound: N[C@@]1(C(=O)O)CO[C@H]2[C@H](C(=O)O)[C@H]21
measured quantity: Population Mitotic Cells (%)
output unit: %
meas value: 11

compound: Cc1ccc(-c2ccc(F)cc2COc2ccc(CCC(=O)O)cc2)cc1
measured quantity: Population Mitotic Cells (%)
output unit: %
meas value: 10

compound: CN(C)c1ccnc2sc3c(=O)n(N4CCCCCC4)cnc3c12
measured quantity: Population Mitotic Cells (%)
output unit: %
meas value: 12

compound: CC[C@H]1OC(=O)[C@H](C)[C@@H](O[C@H]2C[C@@](C)(OC)[C@@H](O)[C@H](C)O2)[C@H](C)[C@@H](O[C@@H]2O[C@H](C)C[C@H](N(C)C)[C@H]2O)[C@@]2(C)CC(C)=C(O2)[C@H](C)[C@@H](O)[C@]1(C)O
measured quantity: Population Mitotic Cells (%)
output unit: %
meas value: 35

compound: O=C1COc2nccc(-c3ccccc3F)c2CN1Cc1cc(C(F)(F)F)cc(C(F)(F)F)c1
measured quantity: Population Mitotic Cells (%)
output unit: %
meas value: 13

compound: Cc1nc2ccc(Oc3ccc(F)cc3)cc2c(=O)n1C[C@H]1CCCN(C(C)C)C1.Cl
measured quantity: Population Mitotic Cells (%)
output unit: %
meas value: 21

* * *

Property: Population Normal (%); scope: individual compounds
Test system: Fibroblast
procedure summary: Multiplex assay against human fibroblast
Type: toxicity, cell-based
experimental setup: 24 h, 10 µM, compound concentration 10 uM, replicate 1

compound: O=C(NCCO)c1cccc(-c2cc(Nc3ccc(OC(F)(F)F)cc3)ncn2)c1
measurement target: Fibroblast
Population Normal (%): 88
//
compound: CCOc1c2c(c(OCC)c3ncccc13)CN(c1ccc(CS(=O)(=O)NC(=O)Cc3ccccc3OC)cc1C)C2=O
measurement target: Fibroblast
Population Normal (%): 96
//
compound: CN1CCN(c2nc3cc(C(F)(F)F)ccc3n3cccc23)CC1.O=C(O)/C=C\C(=O)O.O=C(O)/C=C\C(=O)O
measurement target: Fibroblast
Population Normal (%): 93
//
compound: COc1ccc2c(c1)C(C(=O)N(Cc1ccc(N(C)C)cc1)c1ccc(C(C)C)cc1)CCC2.Cl (centres undefined)
measurement target: Fibroblast
Population Normal (%): 96
//
compound: Cc1nc2ccc(Oc3ccc(F)cc3)cc2c(=O)n1C[C@H]1CCCN(C(C)C)C1.Cl
measurement target: Fibroblast
Population Normal (%): 96
//
compound: CSc1ccccc1N1CCN(CCCCCC(=O)NC2CCCc3ccccc32)CC1.Cl (centres undefined)
measurement target: Fibroblast
Population Normal (%): 92
//
compound: O=C1COc2nccc(-c3ccccc3F)c2CN1Cc1cc(C(F)(F)F)cc(C(F)(F)F)c1
measurement target: Fibroblast
Population Normal (%): 96
//
compound: Oc1c(CN2CCN(c3ccccn3)CC2)cc(Cl)c2cccnc12
measurement target: Fibroblast
Population Normal (%): 100
//
compound: Cl.Clc1ccc2nsnc2c1NC1=NCCN1 [TIZANIDINE HYDROCHLORIDE]
measurement target: Fibroblast
Population Normal (%): 98

* * *

Tested on: HEK-293T
procedure summary: Multiplex assay against HEK293T
Format: toxicity, cell-based
experimental setup: human, 48 h, 1 µM, compound concentration 1 uM, replicate 2
Property: Population Pyknosed Nuclei (%); scope: individual compounds

compound: COc1cc(C(=O)N(CCCc2ccccc2)Cc2ccc(CC(=O)O)cc2)cc(OC)c1C
Population Pyknosed Nuclei (%): 7

compound: O=C(NCC(=O)N1CC[C@H](N[C@H]2CC[C@@](O)(c3ccc(-c4ncccn4)cn3)CC2)C1)c1cccc(C(F)(F)F)c1
Population Pyknosed Nuclei (%): 5

compound: Cc1ccccc1C(=O)Nc1ccc(C(=O)N2CCCC(N(C)C)c3ccccc32)cc1.Cl (stereo not given)
Population Pyknosed Nuclei (%): 6

compound: CCCC(CCC)C(=O)O
Population Pyknosed Nuclei (%): 8

compound: C[C@H](NC(=O)c1c(C(F)F)nn(C)c1Oc1cccc(C(F)(F)F)c1)c1ccc(C(=O)O)cc1
Population Pyknosed Nuclei (%): 6
